assay: Lipophilicity, logD of compound at pH 7.4 by UPLC-UV-MS analysis; assay type: physicochemical; settings: buffer
logD of 2 or higher: True. Under 2: False.

Some entries whose results are on file:
{"Compound": "FC(F)(F)c1ccc(/S(=N\\c2ccccc2)C2CC2)cc1 (configuration not stated)", "Label Class": "True"}
{"Compound": "CCS(=N)c1ccc(C(F)(F)F)cc1 (configuration not stated)", "Label Class": "False"}
{"Compound": "CS(=O)(=O)c1ccc(C(F)(F)F)cc1", "Label Class": "True"}
{"Compound": "COC(=O)/N=S(\\c1ccc(C(F)(F)F)cc1)C1CC1 (configuration not stated)", "Label Class": "True"}
{"Compound": "CS(=N)(=O)c1ccc(C(F)(F)F)cc1 (configuration not stated)", "Label Class": "False"}
{"Compound": "C[S+]([O-])c1ccc(C(F)(F)F)cc1 (configuration not stated)", "Label Class": "False"}
{"Compound": "Cc1ccc(NC(=O)c2ccc(P(C)(C)=O)cc2)cc1Nc1nccc(-c2cccnc2)n1", "Label Class": "False"}
{"Compound": "N#C/N=S(\\c1ccc(C(F)(F)F)cc1)C1CC1 (configuration not stated)", "Label Class": "True"}
{"Compound": "CCOC(=O)/C(=S(/NC(=O)C(C)(C)C)c1ccccc1)P(=O)(OCC)OCC (configuration not stated)", "Label Class": "True"}

Lookup: Assess whether reported logD for Cc1ccc(S(=O)(=O)c2ccccc2)cc1 sits at 2 or higher.
Found: True

----------
test: Aqueous solubility of compound at pH 6.8 incubated for 24 hrs by LC-UV analysis; type: physicochemical; settings: buffer, pH 6.8, 24 h
Here the recorded solubility is given for each entry.

Examples with answers:
{"Compound": "COC(=O)C(C(=O)OC)=S(NC(=O)C(C)(C)C)c1ccccc1 (stereo not given)", "solubility": "> 76 µg/mL"}
{"Compound": "CC(=O)/N=S(/c1ccccc1)c1ccc(C)cc1 (stereo not given)", "solubility": "> 52 µg/mL"}
{"Compound": "C[S+]([O-])c1ccc(C(F)(F)F)cc1 (stereo not given)", "solubility": "> 46 µg/mL"}
{"Compound": "CS(=N)(=O)c1ccc(C(F)(F)F)cc1 (stereo not given)", "solubility": "> 50 µg/mL"}

# next compound below
Lookup: # query: solubility of entry Cc1ccc(S(=N)(=O)c2ccccc2)cc1 (stereo not given)
Found: > 47 µg/mL

----------
Here the recorded hepatic extraction ratio at 1 µM is given for each entry.
assay: Stability in human liver microsomes assessed as hepatic extraction ratio at 1 uM preincubated with compound followed by NADPH addition by LC-MS/MS analysis; type: ADME, Microsome; details: read-out: ERH

{"Molecule": "N#C/N=S(\\c1ccc(C(F)(F)F)cc1)C1CC1 (stereo not drawn)", "Assay Value": "< 0.23"}
{"Molecule": "CCS(=N)c1ccc(C(F)(F)F)cc1 (stereo not drawn)", "Assay Value": "< 0.23"}

# next molecule below
Lookup: # query: hepatic extraction ratio at 1 µM of entry Cc1ccc(NC(=O)c2ccc(P(C)(C)=O)cc2)cc1Nc1nccc(-c2cccnc2)n1
Found: < 0.23

----------
assay: Chemical stability assessed as compound decomposition at pH 7.4 and 40 degreeC measured after 3 days by HPLC-UV analysis; assay type: physicochemical; conditions: buffer, time 3 day, read-out: Drug degradation
Here the recorded degraded at 72 h is given for each entry.

Examples with answers:
{"Compound": "CCOC(=O)/C(=S(/NC(=O)C(C)(C)C)c1ccccc1)P(=O)(OCC)OCC (stereo not drawn)", "degraded at 72 h": "< 0.5%"}
{"Compound": "N#C/N=S(\\c1ccc(C(F)(F)F)cc1)C1CC1 (stereo not drawn)", "degraded at 72 h": "< 0.1%"}

# next compound below
Lookup: # query: degraded at 72 h of entry Cc1ccc(S(=N)(=O)c2ccccc2)cc1 (stereo not drawn)
Found: < 0.5%
